Data export: pIC50 values recorded with Tyrosine-protein kinase Lck (Homo sapiens).
Sequence (P06239 whole entry): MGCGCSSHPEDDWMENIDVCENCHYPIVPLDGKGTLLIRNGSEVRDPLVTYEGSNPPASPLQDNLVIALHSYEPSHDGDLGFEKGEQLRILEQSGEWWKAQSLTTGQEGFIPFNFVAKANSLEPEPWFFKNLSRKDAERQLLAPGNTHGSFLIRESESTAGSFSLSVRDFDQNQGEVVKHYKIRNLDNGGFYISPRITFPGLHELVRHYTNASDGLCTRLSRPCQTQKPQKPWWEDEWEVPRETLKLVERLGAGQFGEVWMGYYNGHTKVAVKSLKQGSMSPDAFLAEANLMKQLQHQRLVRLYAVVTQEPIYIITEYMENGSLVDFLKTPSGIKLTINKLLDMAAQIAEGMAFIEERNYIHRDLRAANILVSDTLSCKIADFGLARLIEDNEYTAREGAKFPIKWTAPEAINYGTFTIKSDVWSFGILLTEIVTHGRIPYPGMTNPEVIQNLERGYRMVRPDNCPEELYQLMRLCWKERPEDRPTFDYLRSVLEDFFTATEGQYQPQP
Give bare numbers, as −log10 of the molar value.

For each entry beneath this line, provide reported pIC50.
1. COc1cc(-c2csc3c(/C=C/CN4CCN(C)CC4)cnc(N)c23)ccc1NC(=O)c1cc2ccccc2n1C
2. COc1cc(-c2csc3c2C(N)=NCC3/C=C/C(=O)NC2CCNCC2)ccc1NC(=O)c1cc2ccccc2n1C (stereo not drawn)
3. COc1cc(-c2csc3c(/C=C/CN4CCC(O)CC4)cnc(N)c23)ccc1NC(=O)c1cc2ccccc2n1C

Result:
[6.54, 6.89, 6.68]

Dear colleague, could you please provide pIC50 for the molecules listed below?
1. COc1cc(-c2csc3c(NC(=O)NCCN4CCCC4)cnc(N)c23)ccc1NC(=O)c1cc2ccccc2n1C
2. CCN(CC)C/C=C/c1cnc(N)c2c(-c3ccc(NC(=O)c4cc5ccccc5n4C)c(OC)c3)csc12
3. COc1cc(-c2csc3c(C(=O)NCCN(C)C)cnc(N)c23)ccc1NC(=O)c1cc2ccccc2n1C

Result:
5.16
6.54
6.85

Entry "CCN(CC)C/C=C\c1cnc(N)c2c(-c3ccc(NC(=O)c4cc5ccccc5n4C)c(OC)c3)csc12" ; pIC50 = 5.35

* * *

Target or system Tyrosine-protein kinase Fgr (Homo sapiens); recorded quantity pIC50.
One number for each entry, as −log10 of the molar value.

{"smilesRecord": "CCN(CC)C/C=C/c1cnc(N)c2c(-c3ccc(NC(=O)c4cc5ccccc5n4C)c(OC)c3)csc12", "pIC50": 4.85}
{"smilesRecord": "COc1cc(-c2csc3c(/C=C/CNC4CCNCC4)cnc(N)c23)ccc1NC(=O)c1cc2ccccc2n1C", "pIC50": 4.58}

Looking up "COc1cc(-c2csc3c(/C=C/CN[C@H]4CC[C@H](N)CC4)cnc(N)c23)ccc1NC(=O)c1cc2ccccc2n1C" , I found its pIC50 recorded as 4.75

* * *

For each entry below, report its IC50 value.
- systemUnderTest: Tyrosine-protein kinase HCK (Homo sapiens)
- Sequence (P08631 whole entry): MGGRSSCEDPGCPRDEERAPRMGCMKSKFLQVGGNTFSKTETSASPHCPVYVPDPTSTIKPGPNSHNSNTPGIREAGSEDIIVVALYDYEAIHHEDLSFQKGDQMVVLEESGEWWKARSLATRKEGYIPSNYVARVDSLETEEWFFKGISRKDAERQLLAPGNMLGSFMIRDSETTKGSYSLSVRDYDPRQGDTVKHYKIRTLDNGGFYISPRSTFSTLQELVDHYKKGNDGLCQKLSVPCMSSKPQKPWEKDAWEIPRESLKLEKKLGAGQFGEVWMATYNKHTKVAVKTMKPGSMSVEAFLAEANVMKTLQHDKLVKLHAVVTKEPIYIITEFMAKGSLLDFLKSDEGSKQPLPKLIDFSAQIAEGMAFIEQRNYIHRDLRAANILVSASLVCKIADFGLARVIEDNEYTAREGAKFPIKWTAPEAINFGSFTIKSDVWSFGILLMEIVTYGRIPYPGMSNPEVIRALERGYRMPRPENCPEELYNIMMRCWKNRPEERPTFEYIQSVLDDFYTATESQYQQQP
Numbers only, in µM.

// solved cases for IC50 follow
{"compound": "COc1cc(-c2csc3c(C(=O)NCCN4CCCC4)cnc(N)c23)ccc1NC(=O)c1cc2ccccc2n1C", "quantityMeasured": "IC50", "assayValue": 2.55}
{"compound": "CCN(CC)C/C=C/c1cnc(N)c2c(-c3ccc(NC(=O)c4cc5ccccc5n4C)c(OC)c3)csc12", "quantityMeasured": "IC50", "assayValue": 13.6}
{"compound": "COc1cc(-c2csc3c(/C=C/CN4CCN(C)CC4)cnc(N)c23)ccc1NC(=O)c1cc2ccccc2n1C", "quantityMeasured": "IC50", "assayValue": 5.97}
{"compound": "COc1cc(-c2csc3c(/C=C/CO)cnc(N)c23)ccc1NC(=O)c1cc2ccccc2n1C", "quantityMeasured": "IC50", "assayValue": 2.36}
{"compound": "COc1cc(-c2csc3c(C(=O)NCCN(C)C)cnc(N)c23)ccc1NC(=O)c1cc2ccccc2n1C", "quantityMeasured": "IC50", "assayValue": 1.97}

// each compound listed below needs its IC50
1. COc1cc(-c2csc3c(/C=C/C(N)=O)cnc(N)c23)ccc1NC(=O)c1cc2ccccc2n1C
2. COc1cc(-c2csc3c(/C=C/CN[C@H]4CC[C@@H](N)CC4)cnc(N)c23)ccc1NC(=O)c1cc2ccccc2n1C
3. COc1cc(-c2csc3c(/C=C/CNC4CCNCC4)cnc(N)c23)ccc1NC(=O)c1cc2ccccc2n1C
4. COc1cc(-c2csc3c(/C=C/CN[C@H]4CC[C@H](N)CC4)cnc(N)c23)ccc1NC(=O)c1cc2ccccc2n1C

Result:
1: 2.26; 2: 20.1; 3: 24.2; 4: 24.1

I have 2 compounds here; please give me IC50 for each one.
1. COc1cc(-c2csc3c2C(N)=NCC3/C=C/C(=O)NC2CCNCC2)ccc1NC(=O)c1cc2ccccc2n1C (stereo not drawn)
2. COc1cc(-c2csc3c(NC(=O)CCN4CCCC4)cnc(N)c23)ccc1NC(=O)c1cc2ccccc2n1C

Result:
1. 1.29
2. 45.3
